Here, each record is paired with measured koff data.
Target: T1, recombinant human CD83 extracellular domain with His tag (hCD83ECD-His) (human, UniProt Q01151 20-144)
T1 construct: extracellular domain; Expressed in CHO cells and purified by IMAC; also called recombinant human CD83ECD-His; recombinant CD83; not shown: His tag
T1 sequence (looked up): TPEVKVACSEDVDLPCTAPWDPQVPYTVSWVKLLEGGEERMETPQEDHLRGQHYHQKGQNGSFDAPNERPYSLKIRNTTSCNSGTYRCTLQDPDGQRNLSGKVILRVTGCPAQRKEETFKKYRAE
Assay: BiaCore SPR, Fab over immobilised hCD83ECD, 1:1 model with mass transfer
I only need the number, in s⁻¹, no unit after it.

3C12.C Fab fragment (Fab, V domains shown) VH: EVQLQESGGGVVQPGRSLRLSCAASGFTFSSYAMHWVRQAPGKGLEWVAVISYDGSNKYYADSVKGRFTISRDNSKNTLYLQMNSLRAEDTAMYYCARHYYYGMDVWGQGTTLTVSS VL: EIVLTQSPSSLSASVGDRVTITCRASQGIRNYLAWYQQKPGKVPKLLIYATSTLQSGVPSRFSGSRSGTEFTLTISSLHPEDFATYYCQQVDRFPYTFGQGTKVELKR : 0.0078

Measured koff of 3C12.B Fab fragment (Fab, V domains shown) VH: EVQLQESGGGVVQPGRSLRLSCAASGFTFSSYAMHWVRQAPGKGLEWVAVISYDGSNKYYADSVKGRFTISRDNSKNTLYLQMNSLRAEDTAMYYCARHYYYGMDVWGQGTTLTVSS VL: EVVMTQSPSFLSASIGDRVSITCRTSQGISNHLAWYQQKPGKAPKLLIYAASSLQSGVPSRFSGSGSGTDFTLTISSLQPEDIATYYCQQVNSYPYTFGQGTRLELKR : 0.014
